We begin with a simple list: items and their reported residual kinase activity, NEK6.
- systemTested: NEK6 (Homo sapiens, UniProt Q9HC98)
- Sequence (Q9HC98 whole entry, species assumed): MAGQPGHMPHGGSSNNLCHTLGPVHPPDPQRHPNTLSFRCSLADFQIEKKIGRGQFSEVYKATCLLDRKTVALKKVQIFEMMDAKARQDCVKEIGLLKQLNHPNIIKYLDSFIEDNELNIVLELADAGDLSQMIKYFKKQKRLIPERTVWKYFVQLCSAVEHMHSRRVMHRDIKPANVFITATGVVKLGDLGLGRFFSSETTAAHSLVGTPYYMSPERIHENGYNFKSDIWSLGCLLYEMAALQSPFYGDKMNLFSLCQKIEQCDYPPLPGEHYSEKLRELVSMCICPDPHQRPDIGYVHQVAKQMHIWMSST
- testMethodNotes: Kinase profiling NEK6
- Format: biochemical
- experimentalConditions: 100 micromolar inhibitor concentration; 100 is no change
# answer = number (no unit)

Worked cases, residual kinase activity, NEK6 given:
O=C(Nc1nc2ccc(O)cc2s1)c1ccccc1 : 97
O=C(Nc1nc2cc(O)ccc2s1)c1ccncc1 : 72
O=C(Nc1nc2cc(O)ccc2s1)c1cccnc1 : 107

Prompt line: Query (molecule): O=C(Nc1nc2ccc(O)cc2s1)c1cccnc1 ; field requested: residual kinase activity, NEK6
Response line: 84

Prompt line: Query (molecule): CC(=O)Nc1nc2cc(C)ccc2s1 ; field requested: residual kinase activity, NEK6
Response line: 107

Prompt line: Query (molecule): COc1ccc2sc(NC(=O)c3cccc(C(N)=O)c3)nc2c1 ; field requested: residual kinase activity, NEK6
Response line: 99

Prompt line: Query (molecule): CC(=O)Nc1nc2ccccc2s1 ; field requested: residual kinase activity, NEK6
Response line: 92

Prompt line: Query (molecule): CC(=O)Nc1nc2ccc(F)cc2s1 ; field requested: residual kinase activity, NEK6
Response line: 92

Prompt line: Query (molecule): COc1ccc2sc(NC(=O)c3ccccc3)nc2c1 ; field requested: residual kinase activity, NEK6
Response line: 86

Prompt line: Query (molecule): N#Cc1ccc2nc(NC(=O)c3ccccc3)sc2c1 ; field requested: residual kinase activity, NEK6
Response line: 97

Prompt line: Query (molecule): O=C(Nc1nc2ccc(F)cc2s1)c1ccccc1 ; field requested: residual kinase activity, NEK6
Response line: 106

Prompt line: Query (molecule): O=C(Nc1nc2cc(O)ccc2s1)c1ccccc1 ; field requested: residual kinase activity, NEK6
Response line: 112

Prompt line: Query (molecule): O=C(Nc1nc2ccc(O)cc2s1)c1ccccn1 ; field requested: residual kinase activity, NEK6
Response line: 98

Prompt line: Query (molecule): COC(=O)c1cccc(C(=O)Nc2nc3cc(OC)ccc3s2)c1 ; field requested: residual kinase activity, NEK6
Response line: 93

Prompt line: Query (molecule): O=C(Nc1nc2cc(O)ccc2s1)c1ccccn1 ; field requested: residual kinase activity, NEK6
Response line: 107

Prompt line: Query (molecule): COC(=O)c1cccc(C(=O)Nc2nc3ccc(F)cc3s2)c1 ; field requested: residual kinase activity, NEK6
Response line: 87

Prompt line: Query (molecule): O=C(Nc1nc2ccc(O)cc2s1)c1ccncc1 ; field requested: residual kinase activity, NEK6
Response line: 75

Prompt line: Query (molecule): O=C(Nc1nc2ccc(C(F)(F)F)cc2s1)c1ccccc1 ; field requested: residual kinase activity, NEK6
Response line: 94

Prompt line: Query (molecule): COc1ccc2nc(NC(=O)c3ccccc3)sc2c1 ; field requested: residual kinase activity, NEK6
Response line: 94

* * *

- systemTested: RSK2 (Homo sapiens)
- Sequence (P51812 whole entry, species assumed): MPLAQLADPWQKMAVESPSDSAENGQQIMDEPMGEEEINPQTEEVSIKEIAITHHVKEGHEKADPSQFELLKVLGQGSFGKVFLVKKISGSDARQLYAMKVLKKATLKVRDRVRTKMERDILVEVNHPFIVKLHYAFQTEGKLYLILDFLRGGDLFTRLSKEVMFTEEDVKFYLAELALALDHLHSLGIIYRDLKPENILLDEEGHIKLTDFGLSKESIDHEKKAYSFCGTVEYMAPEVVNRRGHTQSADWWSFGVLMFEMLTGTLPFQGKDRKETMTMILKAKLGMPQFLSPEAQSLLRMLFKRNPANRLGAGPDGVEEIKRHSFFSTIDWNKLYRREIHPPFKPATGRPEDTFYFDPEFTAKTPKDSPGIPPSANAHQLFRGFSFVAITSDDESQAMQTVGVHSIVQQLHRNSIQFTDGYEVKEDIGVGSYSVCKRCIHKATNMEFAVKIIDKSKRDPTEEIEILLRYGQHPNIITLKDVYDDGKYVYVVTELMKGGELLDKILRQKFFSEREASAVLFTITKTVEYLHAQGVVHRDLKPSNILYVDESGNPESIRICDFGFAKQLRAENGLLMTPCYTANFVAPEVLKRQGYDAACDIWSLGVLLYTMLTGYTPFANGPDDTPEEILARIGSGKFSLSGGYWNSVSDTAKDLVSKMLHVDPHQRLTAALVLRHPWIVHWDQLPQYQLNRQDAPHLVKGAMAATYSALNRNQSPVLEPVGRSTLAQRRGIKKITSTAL
- testMethodNotes: Kinase profiling RSK2
- Assay type: biochemical
- experimentalConditions: 100 micromolar inhibitor concentration; 100 is no change
In this scheme, each record receives a class according to its residual kinase activity, RSK2; the ranges are I (below 50), II (50 to below 70), III (70 or more)

CC(=O)Nc1cccc(C(=O)Nc2nc3cc(O)ccc3s2)c1 [MS:LY-2-89] : I
O=C(Nc1nc2ccc(O)cc2s1)c1ccncc1 [Compound 08-42] : II

Now examine the next entry.
Prompt line: Kindly state the category for this compound: CC(=O)NC(C)C(=O)Nc1nc2ccc(C(F)(F)F)cc2s1 (stereo not shown) [Compound 03-80]
Response line: II

Every entry's value here was drawn from patent US10231954B2.
